experimental.target: human TLR7 (Homo sapiens)
Construct: host or cells: HEK-Blue TLR7 cells (engineered human embryonic kidney cells)
Sequence (Q9NYK1 27-1049): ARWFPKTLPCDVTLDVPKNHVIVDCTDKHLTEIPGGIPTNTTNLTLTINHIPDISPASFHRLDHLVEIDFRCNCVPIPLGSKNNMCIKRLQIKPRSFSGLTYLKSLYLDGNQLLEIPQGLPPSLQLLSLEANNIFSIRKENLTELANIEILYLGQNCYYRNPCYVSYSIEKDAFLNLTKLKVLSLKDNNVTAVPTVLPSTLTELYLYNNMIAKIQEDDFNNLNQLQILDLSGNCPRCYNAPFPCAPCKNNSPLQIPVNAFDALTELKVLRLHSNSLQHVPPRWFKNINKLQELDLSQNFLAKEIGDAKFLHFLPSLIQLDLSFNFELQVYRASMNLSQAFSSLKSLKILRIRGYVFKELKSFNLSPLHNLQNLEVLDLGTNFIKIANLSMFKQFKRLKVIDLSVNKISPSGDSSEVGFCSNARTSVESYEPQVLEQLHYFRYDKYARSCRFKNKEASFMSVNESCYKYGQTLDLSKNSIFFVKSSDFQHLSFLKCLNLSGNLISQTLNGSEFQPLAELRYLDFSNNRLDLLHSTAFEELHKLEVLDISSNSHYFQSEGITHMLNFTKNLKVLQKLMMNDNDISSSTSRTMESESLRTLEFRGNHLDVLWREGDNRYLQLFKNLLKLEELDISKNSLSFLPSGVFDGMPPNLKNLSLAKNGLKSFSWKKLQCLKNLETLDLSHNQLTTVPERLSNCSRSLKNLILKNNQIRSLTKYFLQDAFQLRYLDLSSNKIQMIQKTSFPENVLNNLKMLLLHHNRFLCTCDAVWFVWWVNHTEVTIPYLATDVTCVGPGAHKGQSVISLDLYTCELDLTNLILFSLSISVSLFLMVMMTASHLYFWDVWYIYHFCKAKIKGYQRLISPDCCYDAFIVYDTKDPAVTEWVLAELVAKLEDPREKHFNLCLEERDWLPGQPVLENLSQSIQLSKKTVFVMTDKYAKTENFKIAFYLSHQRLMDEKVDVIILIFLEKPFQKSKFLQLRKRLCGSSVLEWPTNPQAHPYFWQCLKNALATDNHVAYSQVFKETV
protocol.text: HEK-Blue TLR7 reporter assay (human TLR7 agonist activity, SEAP reporter)
Assay type: cell-based
measurement.conditions: Table A, formula IIa compounds; HEK-Blue TLR7 cells, 18 h treatment, SEAP read-out
result.type: EC50

Reference set, count: 4
[
  {
    "compound": "CCCCNc1nc(N)nc2cn(Cc3ccc(CNCc4ccncc4)cc3OC)nc12 [IIa-05]",
    "EC50": "450 nM"
  },
  {
    "compound": "CCCCNc1nc(N)nc2cn(Cc3ccc(CNCCO)cc3OC)nc12 [IIa-03]",
    "EC50": "1000 nM"
  },
  {
    "compound": "CCCCNc1nc(N)nc2cn(Cc3ccc(CNC4CCC(O)CC4)cc3OC)nc12 (stereo not shown) [IIa-08]",
    "EC50": "650 nM"
  },
  {
    "compound": "CCC[C@@H](CCO)Nc1nc(N)nc2cn(Cc3ccc(CO)cc3OC)nc12 [IIa-35]",
    "EC50": "2100 nM"
  }
]

Look up EC50 for the entries below, preserving their order.
1. CCCCNc1nc(N)nc2cn(Cc3ccc(CNCCS(C)(=O)=O)cc3OC)nc12 [IIa-11]
2. CCCCNc1nc(N)nc2cn(Cc3ccc(CNC4CC(O)C4)cc3OC)nc12 (stereo not shown) [IIa-09]
3. CCCCNc1nc(N)nc2cn(Cc3ccc(CN4CCCNCC4)cc3OC)nc12 [IIa-29]

["540 nM", "420 nM", "760 nM"]

The measured values listed here are drawn from patent US11400094B2.
